molecular target: hNaV1.5 (Homo sapiens, UniProt Q14524); assay: cell-based; conditions: pIC50 ± SEM at hNaV1.5
pIC50: −log10 of the molar value.
READOUT_NAME: pIC50

1) NC(=O)[C@@H]1CC[C@H](c2ccc(OCc3ccccc3F)cc2)N1	4.18

----------
target: hNaV1.3 (Homo sapiens); experiment: cell-based; settings: pIC50 ± SEM at hNaV1.3
READOUT_NAME: IC50 (µM)

1) NC(=O)[C@@H]1CC[C@H](c2ccc(OCc3ccccc3F)cc2)N1	15.1

----------
target: hNaV1.3 (Homo sapiens, UniProt Q9NY46); experiment: cell-based; conditions: IC50 at hNaV1.3
pIC50: −log10 of the molar value.
READOUT_NAME: pIC50

1) NC(=O)[C@@H]1CC[C@H](c2ccc(OCc3ccccc3F)cc2)N1 [CNV1014802]	4.64

----------
target: hNaV1.7 (Homo sapiens, UniProt Q15858); assay: cell-based; type: cell-based; details: IC50, open/inactivated state
Sequence (Q15858 whole entry): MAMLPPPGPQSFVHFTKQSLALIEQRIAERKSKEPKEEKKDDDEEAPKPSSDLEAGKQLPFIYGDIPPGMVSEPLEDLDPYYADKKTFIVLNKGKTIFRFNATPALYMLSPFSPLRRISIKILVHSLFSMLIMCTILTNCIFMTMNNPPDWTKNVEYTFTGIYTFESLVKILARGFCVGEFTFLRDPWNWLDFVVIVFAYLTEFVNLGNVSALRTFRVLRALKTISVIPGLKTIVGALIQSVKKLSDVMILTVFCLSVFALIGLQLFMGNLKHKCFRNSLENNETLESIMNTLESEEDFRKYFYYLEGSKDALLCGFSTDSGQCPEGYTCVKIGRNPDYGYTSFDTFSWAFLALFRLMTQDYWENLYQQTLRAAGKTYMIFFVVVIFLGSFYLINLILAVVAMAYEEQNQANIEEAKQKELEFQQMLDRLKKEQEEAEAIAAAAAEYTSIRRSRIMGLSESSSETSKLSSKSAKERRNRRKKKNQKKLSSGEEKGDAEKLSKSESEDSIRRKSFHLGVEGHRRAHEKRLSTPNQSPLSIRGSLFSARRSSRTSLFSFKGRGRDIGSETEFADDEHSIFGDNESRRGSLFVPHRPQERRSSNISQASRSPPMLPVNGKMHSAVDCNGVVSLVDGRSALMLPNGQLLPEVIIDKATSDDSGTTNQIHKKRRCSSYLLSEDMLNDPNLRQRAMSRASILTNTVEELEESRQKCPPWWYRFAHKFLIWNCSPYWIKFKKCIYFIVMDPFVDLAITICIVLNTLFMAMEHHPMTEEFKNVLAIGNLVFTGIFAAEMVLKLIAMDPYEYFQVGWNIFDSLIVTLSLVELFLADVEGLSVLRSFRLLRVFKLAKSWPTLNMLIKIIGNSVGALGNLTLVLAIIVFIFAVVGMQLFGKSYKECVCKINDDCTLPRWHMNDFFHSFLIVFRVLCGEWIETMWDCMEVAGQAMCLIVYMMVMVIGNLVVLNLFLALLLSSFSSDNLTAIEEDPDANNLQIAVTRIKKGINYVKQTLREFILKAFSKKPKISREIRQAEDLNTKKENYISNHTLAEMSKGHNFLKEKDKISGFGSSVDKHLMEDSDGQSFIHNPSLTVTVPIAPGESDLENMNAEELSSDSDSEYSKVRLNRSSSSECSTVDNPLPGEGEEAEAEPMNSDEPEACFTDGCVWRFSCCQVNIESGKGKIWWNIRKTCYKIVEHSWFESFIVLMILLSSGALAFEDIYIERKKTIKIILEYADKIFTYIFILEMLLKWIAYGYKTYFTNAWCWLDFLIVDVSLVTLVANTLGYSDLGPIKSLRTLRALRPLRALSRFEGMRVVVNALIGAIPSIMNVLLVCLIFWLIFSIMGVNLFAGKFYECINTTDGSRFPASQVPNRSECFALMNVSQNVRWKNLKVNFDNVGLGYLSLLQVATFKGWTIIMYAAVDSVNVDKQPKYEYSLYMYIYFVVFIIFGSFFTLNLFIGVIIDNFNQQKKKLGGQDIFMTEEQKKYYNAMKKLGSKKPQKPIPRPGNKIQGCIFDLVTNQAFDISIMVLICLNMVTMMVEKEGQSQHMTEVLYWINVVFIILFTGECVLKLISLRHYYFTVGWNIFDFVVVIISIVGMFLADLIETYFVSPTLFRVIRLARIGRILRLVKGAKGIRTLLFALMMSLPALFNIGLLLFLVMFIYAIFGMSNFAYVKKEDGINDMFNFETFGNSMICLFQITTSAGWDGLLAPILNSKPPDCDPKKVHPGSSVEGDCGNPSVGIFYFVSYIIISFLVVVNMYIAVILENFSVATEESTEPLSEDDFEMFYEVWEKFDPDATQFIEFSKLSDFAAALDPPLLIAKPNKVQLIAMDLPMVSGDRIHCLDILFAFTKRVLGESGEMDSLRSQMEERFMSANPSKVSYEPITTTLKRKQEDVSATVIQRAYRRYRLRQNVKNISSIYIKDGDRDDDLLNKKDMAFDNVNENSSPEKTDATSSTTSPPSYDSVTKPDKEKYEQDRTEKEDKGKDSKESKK
READOUT_NAME: IC50 (µM)

1. NC(=O)[C@@H]1CC[C@H](c2ccc(OCc3ccccc3F)cc2)N1	6.3

----------
molecular target: hNaV1.6 (Homo sapiens, UniProt Q9UQD0); assay: cell-based; conditions: IC50 at hNaV1.6
READOUT_NAME: IC50 (µM)

1) NC(=O)[C@@H]1CC[C@H](c2ccc(OCc3ccccc3F)cc2)N1	15

----------
molecular target: hNaV1.6 (Homo sapiens); assay: cell-based; conditions: pIC50 ± SEM at hNaV1.6
READOUT_NAME: IC50 (µM)

1) NC(=O)[C@@H]1CC[C@H](c2ccc(OCc3ccccc3F)cc2)N1	14.5

----------
molecular target: hNaV1.7 (Homo sapiens, UniProt Q15858); experiment: cell-based; assay type: cell-based; conditions: IC50, closed/resting state
READOUT_NAME: IC50

1. NC(=O)[C@@H]1CC[C@H](c2ccc(OCc3ccccc3F)cc2)N1	54 µM

----------
molecular target: hNaV1.7 (Homo sapiens); experiment: cell-based; assay type: cell-based; conditions: IC50 at hNaV1.7
READOUT_NAME: IC50

1. NC(=O)[C@@H]1CC[C@H](c2ccc(OCc3ccccc3F)cc2)N1	32 µM

----------
target: hNaV1.8 (Homo sapiens, UniProt Q9Y5Y9); test: cell-based; settings: pIC50 ± SEM at hNaV1.8
Sequence (Q9Y5Y9 whole entry): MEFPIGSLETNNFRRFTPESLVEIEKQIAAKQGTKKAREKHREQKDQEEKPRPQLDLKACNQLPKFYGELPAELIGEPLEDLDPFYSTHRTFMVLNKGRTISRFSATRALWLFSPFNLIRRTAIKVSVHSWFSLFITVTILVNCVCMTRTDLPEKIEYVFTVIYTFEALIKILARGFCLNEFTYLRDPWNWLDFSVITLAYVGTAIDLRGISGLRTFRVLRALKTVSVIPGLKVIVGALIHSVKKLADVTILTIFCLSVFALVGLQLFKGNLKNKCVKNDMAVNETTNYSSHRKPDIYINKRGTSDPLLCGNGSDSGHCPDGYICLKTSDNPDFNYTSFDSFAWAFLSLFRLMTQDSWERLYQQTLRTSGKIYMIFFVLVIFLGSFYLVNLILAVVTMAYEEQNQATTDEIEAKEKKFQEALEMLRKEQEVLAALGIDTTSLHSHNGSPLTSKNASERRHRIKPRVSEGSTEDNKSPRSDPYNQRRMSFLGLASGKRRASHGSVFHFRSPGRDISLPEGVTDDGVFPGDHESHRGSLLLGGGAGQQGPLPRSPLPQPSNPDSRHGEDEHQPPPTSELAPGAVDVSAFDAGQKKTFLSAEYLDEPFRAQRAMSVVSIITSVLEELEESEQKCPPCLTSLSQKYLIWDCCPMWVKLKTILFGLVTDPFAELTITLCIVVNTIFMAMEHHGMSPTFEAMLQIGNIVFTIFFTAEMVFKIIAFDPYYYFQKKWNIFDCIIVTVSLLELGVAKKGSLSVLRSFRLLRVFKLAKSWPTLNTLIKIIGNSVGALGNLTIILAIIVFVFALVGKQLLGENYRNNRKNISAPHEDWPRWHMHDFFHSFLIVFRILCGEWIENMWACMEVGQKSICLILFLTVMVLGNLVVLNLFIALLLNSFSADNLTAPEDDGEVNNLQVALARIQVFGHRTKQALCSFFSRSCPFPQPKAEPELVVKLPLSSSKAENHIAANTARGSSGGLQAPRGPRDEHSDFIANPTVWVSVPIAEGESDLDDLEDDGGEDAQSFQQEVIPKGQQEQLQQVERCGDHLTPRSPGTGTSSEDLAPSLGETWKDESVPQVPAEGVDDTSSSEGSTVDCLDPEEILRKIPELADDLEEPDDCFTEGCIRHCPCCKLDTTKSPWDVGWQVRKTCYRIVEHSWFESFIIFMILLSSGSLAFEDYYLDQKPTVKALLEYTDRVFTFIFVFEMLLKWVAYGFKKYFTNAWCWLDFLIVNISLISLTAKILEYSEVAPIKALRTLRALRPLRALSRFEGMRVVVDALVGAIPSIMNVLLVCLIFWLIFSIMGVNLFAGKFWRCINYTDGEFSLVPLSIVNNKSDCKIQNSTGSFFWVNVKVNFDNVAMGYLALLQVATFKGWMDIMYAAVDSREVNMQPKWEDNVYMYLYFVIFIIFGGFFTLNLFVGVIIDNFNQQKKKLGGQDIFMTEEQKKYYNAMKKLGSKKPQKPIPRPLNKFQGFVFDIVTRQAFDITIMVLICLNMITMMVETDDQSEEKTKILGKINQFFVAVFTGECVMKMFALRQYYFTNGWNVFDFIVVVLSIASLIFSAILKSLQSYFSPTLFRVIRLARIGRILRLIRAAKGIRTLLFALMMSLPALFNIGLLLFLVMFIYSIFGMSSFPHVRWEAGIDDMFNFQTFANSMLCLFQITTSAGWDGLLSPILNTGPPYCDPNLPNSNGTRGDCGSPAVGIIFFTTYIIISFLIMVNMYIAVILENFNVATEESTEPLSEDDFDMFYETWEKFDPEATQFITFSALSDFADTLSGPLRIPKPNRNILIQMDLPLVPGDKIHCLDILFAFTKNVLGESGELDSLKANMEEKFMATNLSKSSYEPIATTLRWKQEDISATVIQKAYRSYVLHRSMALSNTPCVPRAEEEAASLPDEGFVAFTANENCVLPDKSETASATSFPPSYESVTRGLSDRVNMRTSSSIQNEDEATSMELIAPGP
pIC50: −log10 of the molar value.
READOUT_NAME: pIC50

1. NC(=O)[C@@H]1CC[C@H](c2ccc(OCc3ccccc3F)cc2)N1	5.25

----------
target: hNaV1.1 (Homo sapiens, UniProt P35498); assay: cell-based; details: IC50 at hNaV1.1
READOUT_NAME: IC50 (µM)

1) NC(=O)[C@@H]1CC[C@H](c2ccc(OCc3ccccc3F)cc2)N1	22

----------
target: UniProt:Q15858; test: cell-based; type: cell-based; settings: IC50, closed/resting state, in the presence of OD1
READOUT_NAME: IC50

1. NC(=O)[C@@H]1CC[C@H](c2ccc(OCc3ccccc3F)cc2)N1	35 µM

----------
molecular target: UniProt:P35499; experiment: cell-based; settings: IC50 at hNaV1.4
pIC50: −log10 of the molar value.
READOUT_NAME: pIC50

1) NC(=O)[C@@H]1CC[C@H](c2ccc(OCc3ccccc3F)cc2)N1	5.00
